assay: RP, Waters ACQUITY UPLC BEH C18, 100 × 1 mm, 1.7 µm, 50 °C, 0.3 mL/min, estimated dead time 0.17 min; A: water + 0.1% formic acid + 20 mM ammonium formate; B: methanol + 0.1% formic acid + 20 mM ammonium formate; gradient (min/%B) 0/0 15/100 21/100 22/0 30/0; conditions: stereoisomer not certain
Everything with LC retention time lower than 10 min is False; everything else, including exactly 10 min, is True.

Compound: CC(=O)OC1(C(C)=O)CCC2C3CC(C)C4=CC(=O)CCC4(C)C3CCC21C (stereo unspecified) [Medroxyprogesteroneacetate]
Answer Label: True

Compound: O=[N+]([O-])N=C1NCCN1Cc1ccc(Cl)nc1
Answer Label: False

Compound: NC(Cc1ccccc1)C(=O)O (stereo unspecified)
Answer Label: False

Compound: CCNC(=O)C(C)Oc1cccc2ccccc12 (stereo unspecified) [Desethyl-napropamide]
Answer Label: True

Compound: CCN(CC)CCOC(=O)C(Cc1cccc2ccccc12)CC1CCCO1 (stereo unspecified)
Answer Label: True

###

Some compounds, each annotated with its measured LC retention time.
test: RP, Waters ACQUITY UPLC BEH C18, 100 × 1 mm, 1.7 µm, 50 °C, 0.3 mL/min, estimated dead time 0.17 min; A: water + 0.1% formic acid + 20 mM ammonium formate; B: methanol + 0.1% formic acid + 20 mM ammonium formate; gradient (min/%B) 0/0 15/100 21/100 22/0 30/0; details: stereoisomer not certain
Quantity: LC retention time (min)

Compound: CNC(=O)Oc1ccccc1C(C)C
Quantitative Result: 12.9

Compound: N#CC1CCCN1C(=O)CNC12CC3CC(CC(O)(C3)C1)C2 (stereo not drawn)
Quantitative Result: 6.31

Compound: CNC(=O)C(C)SCCSP(=O)(OC)OC (stereo not drawn) [Vamidothion (Vamidoate)]
Quantitative Result: 9.33

Compound: CCCCC(O)(Cn1cncn1)c1ccc(Cl)cc1Cl (stereo not drawn)
Quantitative Result: 15.9

Compound: CC1CCCC(=O)CCCC=Cc2cc(O)cc(O)c2C(=O)O1 (stereo not drawn)
Quantitative Result: 14.4

Compound: CSc1nc2ccccc2s1
Quantitative Result: 14

Compound: CCN(CC)c1nc(C)cc(OP(=S)(OC)OC)n1
Quantitative Result: 15.8

Compound: CCc1cccc(CC)c1N(COC)C(=O)C(=O)O
Quantitative Result: 15.5

Compound: CC(C)(C)c1n[nH]c(=O)n(N)c1=O
Quantitative Result: 9.82

Compound: COC(=O)Nc1nc2ccc(C(=O)c3ccccc3)cc2[nH]1
Quantitative Result: 12.5

Compound: CN(Cc1cnc2nc(N)nc(N)c2n1)c1ccc(C(=O)NC(CCC(=O)O)C(=O)O)cc1 (stereo not drawn) [Methotrexate]
Quantitative Result: 7.89

Compound: CCOC(=O)C1(c2ccccc2)CCN(C)CC1
Quantitative Result: 9.63

Compound: CC(=O)c1cc(C(C)(C)C)cc2c1CCC2(C)C [Celestolide]
Quantitative Result: 17.5

Compound: CC(=O)OC1(C(C)=O)CCC2C3C=C(C)C4=CC(=O)CCC4(C)C3CCC21C (stereo not drawn) [Megestrol-17-acetate]
Quantitative Result: 15.3

Compound: O=C(Nc1ccccc1)Nc1ccccc1Cl
Quantitative Result: 13.9

Compound: COc1cc2c3c(c1OC)-c1ccccc1CC3N(C)CC2 (single isomer, unassigned; (-)) [(-)-Nuciferine]
Quantitative Result: 10.5

Compound: CC(C)NC(=O)NC(C)C
Quantitative Result: 8.54

Compound: CNc1nc(NC(C)C)nc(SC)n1
Quantitative Result: 11.7

Compound: CNCCCC12CCC(c3ccccc31)c1ccccc12
Quantitative Result: 12.8

Compound: CC(C)C1(C)N=C(c2nc3ccccc3cc2C(=O)O)NC1=O (stereo not drawn)
Quantitative Result: 11.8

Compound: CN(C)CCc1ccc(O)cc1
Quantitative Result: 3.04

Compound: CN(C)C(=O)Nc1ccc(-n2nc(C(C)(C)C)oc2=O)c(Cl)c1
Quantitative Result: 13.6

Compound: O=C(O)C(F)(F)C(F)(F)C(F)(F)C(F)(F)C(F)(F)F
Quantitative Result: 12.7

Compound: CC(Oc1ccc(Cl)cc1Cl)C(=O)O (stereo not drawn)
Quantitative Result: 14

Compound: CCOP(=S)(OCC)Oc1nc(Cl)c(Cl)cc1Cl
Quantitative Result: 17.1

Compound: O=C(O)c1ccc2ncsc2c1
Quantitative Result: 9.32

Compound: COc1ccc(Cc2nccc3cc(OC)c(OC)cc23)cc1OC
Quantitative Result: 9.77

Compound: COC(C)C(O)(C(=O)OCC1=CC[N+]2([O-])CCC(O)C12)C(C)C (stereo not drawn) [Heliotrine N-oxide]
Quantitative Result: 8.36

###

assay: RP, Phenomenex Synergi Polar-RP, 100 × 3 mm, 2.5 µm, 40 °C, 0.4 mL/min, estimated dead time 1.1 min; A: water + 1 mM ammonium fluoride; B: methanol + 1 mM ammonium fluoride; C: acetonitrile; D: 50% isopropanol + 50% acetone; gradient (min/%B/%C/%D) 0/5/0/0 2/5/0/0 8/95/0/0 12/80/15/0 19/25/70/0 19.5/0/25/70 21.5/0/25/70 22.5/0/25/0 23/5/0/0; conditions: stereoisomer not certain
Quantity: LC retention time

Compound Smiles: Oc1ccc(Cl)cc1
Quantity: LC retention time
Result: 8.39 min

Compound Smiles: Oc1cc(Cl)c(Cl)c(Cl)c1
Quantity: LC retention time
Result: 10.8 min

Compound Smiles: O=C(O)C(F)(F)C(F)(F)C(F)(F)C(F)(F)C(F)(F)C(F)(F)F
Quantity: LC retention time
Result: 11.3 min

###

assay: RP, Waters ACQUITY UPLC BEH C18, 100 × 1 mm, 1.7 µm, 50 °C, 0.3 mL/min, estimated dead time 0.17 min; A: water + 0.1% formic acid + 20 mM ammonium formate; B: methanol + 0.1% formic acid + 20 mM ammonium formate; gradient (min/%B) 0/0 15/100 21/100 22/0 30/0; conditions: stereoisomer not certain
Each entry below lists one item and its recorded LC retention time value.

Compound: C=C1C(=O)OC2C1CCC(C)=CCCC1(C)OC21 (stereo unspecified)
LC retention time [min]: 12.8

Compound: O=C(Cc1ccccc1)NC(=NOCC1CC1)c1c(C(F)(F)F)ccc(F)c1F
LC retention time [min]: 16

Compound: Oc1ccc(C(c2ccc(O)cc2)(C(F)(F)F)C(F)(F)F)cc1
LC retention time [min]: 15.9

Compound: CC=C1CC(C)C(C)(O)C(=O)OCC2=CCN3CCC(OC1=O)C23 (stereo unspecified)
LC retention time [min]: 8.65

Compound: O=C(O)C(F)(F)C(F)(F)C(F)(F)C(F)(F)C(F)(F)C(F)(F)C(F)(F)C(F)(F)C(F)(F)C(F)(F)C(F)(F)C(F)(F)C(F)(F)F
LC retention time [min]: 17.7

Compound: CCCCC(CC)COC(=O)C=Cc1ccc(OC)cc1 (stereo unspecified) [Octyl-methoxycinnamate]
LC retention time [min]: 18.2

Compound: CNC(C)C(O)c1ccccc1 (stereo unspecified)
LC retention time [min]: 7.4

Compound: CCC(C)C1OC2(C=CC1C)CC1CC(CC=C(C)C(OC3CC(OC)C(OC4CC(OC)C(O)C(C)O4)C(C)O3)C(C)C=CC=C3COC4C(O)C(C)=CC(C(=O)O1)C34O)O2 (stereo unspecified)
LC retention time [min]: 18.1

Compound: CN1C2CCC1C(C(=O)O)C(OC(=O)c1ccccc1)C2 (stereo unspecified)
LC retention time [min]: 11.5

Compound: CON=C1CC2(CC3CC(CC=C(C)CC(C)C=CC=C4COC5C(O)C(C)=CC(C(=O)O3)C45O)O2)OC(C(C)=CC(C)C)C1C (stereo unspecified)
LC retention time [min]: 18.6

Compound: O=C(c1ccccc1)C1CCCCC1
LC retention time [min]: 15.5

###

experiment: RP, Waters ACQUITY UPLC BEH C18, 100 × 1 mm, 1.7 µm, 50 °C, 0.3 mL/min, estimated dead time 0.17 min; A: water + 10 mM ammonium bicarbonate; B: 10% water + 90% methanol + 10 mM ammonium bicarbonate; gradient (min/%B) 0/0 15/100 21/100 22/0 30/0; settings: stereoisomer not certain
Where a name gives a salt, the structure may show the parent alone.
Overview of recorded LC retention time for various compounds
Quantity: LC retention time (min)

Compound: Cc1cccc(C)c1N(Cn1cccn1)C(=O)CCl
Quantity: LC retention time
Unit Symbol: min
Quantitative Result: 13.3
//
Compound: CNC(=O)Oc1ccc(N(C)C)c(C)c1
Quantity: LC retention time
Unit Symbol: min
Quantitative Result: 12.1
//
Compound: CC(C)N1C(=O)c2ccccc2NS1(=O)=O
Quantity: LC retention time
Unit Symbol: min
Quantitative Result: 7.66
//
Compound: Cc1onc(-c2ccccc2)c1C(=O)NC1C(=O)N2C1SC(C)(C)C2C(=O)O (stereo unspecified)
Quantity: LC retention time
Unit Symbol: min
Quantitative Result: 11.6
//
Compound: NC12CC3CC(C1)CC(O)(C3)C2
Quantity: LC retention time
Unit Symbol: min
Quantitative Result: 10.4
//
Compound: CCCCCCCCCCCCOS(=O)(=O)O [Dodecyl sulfate]
Quantity: LC retention time
Unit Symbol: min
Quantitative Result: 16.4
//
Compound: CNC(=O)C(C)SCCSP(=O)(OC)OC (stereo unspecified) [Vamidothion (Vamidoate)]
Quantity: LC retention time
Unit Symbol: min
Quantitative Result: 9.45
//
Compound: O=C(O)c1ccccc1O
Quantity: LC retention time
Unit Symbol: min
Quantitative Result: 4.78
//
Compound: CNC(=C[N+](=O)[O-])NCCSCc1ccc(CN(C)C)o1
Quantity: LC retention time
Unit Symbol: min
Quantitative Result: 10.2
//
Compound: CCOP(=S)(OCC)ON=C(C#N)c1ccccc1
Quantity: LC retention time
Unit Symbol: min
Quantitative Result: 14.4
//
Compound: CCc1cccc(C)c1N(C(=O)CS(=O)(=O)O)C(C)C(=O)O (stereo unspecified)
Quantity: LC retention time
Unit Symbol: min
Quantitative Result: 8.62
//
Compound: COc1ccc2c3c1OC1C(O)C=CC4C(C2)N(C)CCC341 (stereo unspecified)
Quantity: LC retention time
Unit Symbol: min
Quantitative Result: 12.1
//
Compound: C#CC(C)(C)NC(=O)c1cc(Cl)cc(Cl)c1 [Propyzamide]
Quantity: LC retention time
Unit Symbol: min
Quantitative Result: 14.6
//
Compound: CC(=O)OC12COC1CC(O)C1(C)C(=O)C(O)C3=C(C)C(O)CC(O)(C(OC(=O)c4ccccc4)C21)C3(C)C (stereo unspecified)
Quantity: LC retention time
Unit Symbol: min
Quantitative Result: 12
//
Compound: CCC(C)c1ccccc1OC(=O)NC (stereo unspecified)
Quantity: LC retention time
Unit Symbol: min
Quantitative Result: 15
//
Compound: CC(C)(C)C(=O)C(Oc1ccc(Cl)cc1)n1ccnc1 (stereo unspecified)
Quantity: LC retention time
Unit Symbol: min
Quantitative Result: 15.1
//
Compound: NC(=O)N1c2ccccc2CC(O)c2ccccc21 (stereo unspecified) [10,11-Dihydro-10-hydroxycarbamazepine]
Quantity: LC retention time
Unit Symbol: min
Quantitative Result: 10.9
//
Compound: CSc1nnc(C(C)(C)C)c(=O)[nH]1
Quantity: LC retention time
Unit Symbol: min
Quantitative Result: 11.6
//
Compound: CNC(=O)N(C)c1nc2ccccc2s1
Quantity: LC retention time
Unit Symbol: min
Quantitative Result: 13
//
Compound: CNC(=O)N(C)c1nnc(C(C)(C)C)s1
Quantity: LC retention time
Unit Symbol: min
Quantitative Result: 12.1
//
Compound: C=C1C(=O)OC2C1CCC(C)=CCCC1(C)OC21 (stereo unspecified)
Quantity: LC retention time
Unit Symbol: min
Quantitative Result: 13.1
//
Compound: Cc1cccc2n[nH]nc12
Quantity: LC retention time
Unit Symbol: min
Quantitative Result: 14.6
//
Compound: COC(C)C(O)(C(=O)OCC1=CC[N+]2([O-])CCC(O)C12)C(C)C (stereo unspecified) [Heliotrine N-oxide]
Quantity: LC retention time
Unit Symbol: min
Quantitative Result: 8.96
//
Compound: c1ccc2n[nH]nc2c1
Quantity: LC retention time
Unit Symbol: min
Quantitative Result: 6.66
//
Compound: CC1(C)OC2CC3C4CC(F)C5=CC(=O)C=CC5(C)C4C(O)CC3(C)C2(C(=O)CO)O1 (stereo unspecified) [Flunisolide]
Quantity: LC retention time
Unit Symbol: min
Quantitative Result: 13.8
//
Compound: Cc1nc2n(c(=O)c1CCN1CCC(c3noc4cc(F)ccc34)CC1)CCCC2
Quantity: LC retention time
Unit Symbol: min
Quantitative Result: 14.7
